- Test system: HCT-116/VM46
- Assay Comment: Cytotoxic assay, MDR reversing effect with actinomycin D in resistant colon carcinoma cells
- Assay type: cell-based, human
- Experimental Conditions: ActD IC50 in HCT-116/VM46 with chemosensitizer 0.4 μM divided by ActD IC50 in sensitive HCT116
- Protocol: Cell Culture: HCT116/VM46 cells were selected from human colon carcinoma HCT116 cell line for resistance to VM26 and MCF-7/ADR cells were selected from human breast carcinoma MCF-7 cell line for resistance to Adriamycin. […] Cytotoxic Assay: The cells were seeded in 96 well microtiter plates at 5x10^3 cells per well and allowed to grow for 24 hours at 37 °C. […] Absorbance was read by Molecular Devices' microtiter plate reader at the wavelength of 595nm. […]
Overview of reported Fold Resistance across a group of molecules:

Record excerpt, results attached:
{"Molecule": "CCN(CC)CCN(C(=O)c1cc(Cl)c(N)cc1Oc1ccc(C(F)(F)F)cc1[N+](=O)[O-])c1ccc(C(F)(F)F)cc1[N+](=O)[O-]", "Assay System": "HCT-116/VM46", "Fold Resistance": 11.0}
{"Molecule": "COc1ccc(CCN(C)CCCC(C#N)(c2ccc(OC)c(OC)c2)C(C)C)cc1OC (centres unmarked)", "Assay System": "HCT-116/VM46", "Fold Resistance": 11.6}
{"Molecule": "C/C=C/C(=O)Nc1cc(OCCSc2ccccc2)c(C(=O)NCCN(CC)CC)cc1Cl", "Assay System": "HCT-116/VM46", "Fold Resistance": 4.8}

Lab note: measured Fold Resistance of `CCN(CC)CCNC(=O)c1cc(Cl)c(N)cc1OCCCc1ccccc1` was 9.8

Looking up `CCN(CC)CCN(C(=O)c1cc(Cl)c(N)cc1Oc1ccc([N+](=O)[O-])cc1)c1ccc([N+](=O)[O-])cc1` , I see its Fold Resistance listed as 9.8

Data credit: patent EP0529395A2
